Please respond with reported apparent KD of K4 kissing-loop reporter for every item in the list.
System: K4 kissing-loop RNA reporter;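 also: bound reporter read as fluorescence of individual clusters on recovered sequencing chips by microscopy, with normalized cluster intensities fitted with a binding model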
TEST_DESCRIPTION: apparent KD of K4 kissing-loop reporter; higher = weaker reporter binding
STUDY_CONDITIONS: Eterna round: R107; input ligand: arginine 13.2 mM
Supply the numeric figure in nM, leaving out any unit text.

Prompt line: Any idea what apparent KD of K4 kissing-loop reporter was measured for UGGAUAUAGUUUAGUCUGGUGAGGUCAGAUACCAGACUAGCGAUAGUCCCUUGGCAGCUGAUUAUGAUUGAGUGAUGUUCAAUCG [Theo A Ex t9] ?
Response line: 151

Prompt line: Any idea what apparent KD of K4 kissing-loop reporter was measured for UAAGAGGACCACUACAAGAGUCCUCGAAUACGAGGACCGGUACGGCCGCCACUCGAUAACUUGUAGUGAUGUUGCAAGUAAGAAU [BrourdMod 2 - Jieux - Same State Tryptophan A] ?
Response line: 85.6

Prompt line: Any idea what apparent KD of K4 kissing-loop reporter was measured for GCUAUGGUAGGAAGGAGCGCUACCUUGUUUUUACGAGUGAUGUUCGGAAGCAGGGUGUUAAAGCAGGUAGGUCGCCUACUAUAGC [Arginine B K4 21] ?
Response line: 178

Prompt line: Any idea what apparent KD of K4 kissing-loop reporter was measured for CUAUGGAAACAUAGUAGUCGGGAAACCGAUACCAGUAUGGAAACAUACCCUUGGCAGCGGAAUGAUUAAACGGAGUGAUGUUCCG [Theophylline A K4 18] ?
Response line: 276

Prompt line: Any idea what apparent KD of K4 kissing-loop reporter was measured for UGACUACAAAAGGAAUAAUCCUAGUGAUGUUAGGAUAUGCUGAUAAGCAGAAGGAACGGAGAUCGAAGGAUCUCAUAUGUAGUCU [whbob_Ex_FMNA__2th193] ?
Response line: 92.1

Prompt line: Any idea what apparent KD of K4 kissing-loop reporter was measured for CACAGAUCCUAAGGAUAUGGAGUGAUGUUCGCAAGUUCUUGGUGUGCAUUCAUCUGUCCUAUCAACCCAGAAGGUAGGAAGUCAC [theeternabot_exclusion_KL_FMN_B_1] ?
Response line: 516

Prompt line: Any idea what apparent KD of K4 kissing-loop reporter was measured for CAUAGGAAACUAUGUUUCUCUCUUACUGAAGGAGCGCGUGAAAACGCAGGUAGGUCGCAGAAUUUGAGAGUGAUGUUCUCAAUAA [Ex Arginine A K4 13] ?
Response line: 149

Prompt line: Any idea what apparent KD of K4 kissing-loop reporter was measured for AAAGAUCUUCUAGAAACUAGAAGAUCAAGAGAGGAUAUCCGAAUUCGGAGAAGGCUCACUAAGUGAUGUUUGGACCCAAAGGGAA [AK3 SS FMN A] ?
Response line: 1520

Prompt line: Any idea what apparent KD of K4 kissing-loop reporter was measured for AAAUAAAUCACGGCCGCCACUGUAAGUUGAAGUGAUGUUUCAAGAUAUAGUAUGUUUUAUAAUAUCAGGACCGGGUGAUUUUUAA [JR_SSTryptoB_Sub021] ?
Response line: 103

Prompt line: Any idea what apparent KD of K4 kissing-loop reporter was measured for AACACUCACGGAGUGAUGUUCUGGAAUAAACGAGGACCGGUACGGCCGCCACUCGAAAAUGAGUGAGUCCUACGAAAAGUAGGAC [Omei inspired 4] ?
Response line: 394

Prompt line: Any idea what apparent KD of K4 kissing-loop reporter was measured for AGCCGAAAGGCGAGUGCUGUCACUCCGGAAGGAGCGCAGGAAACUGCAGGUAGGUCGCCGGAGUGAUGUUCCGGUGCAGCACUCA [Omei KL Arginine A Exc B v6] ?
Response line: 317

Prompt line: Any idea what apparent KD of K4 kissing-loop reporter was measured for UUUGGAGAGGGAAGGAGCGUGAAAGAGAAAGAAUAUAGUGAUGUUAUAUAGAAGAAAGAAUCACAGGUAGGUCGCCCGGAGGAGG [SSArgB.D] ?
Response line: 865
